- Study System: T1, cynomolgus TGF-β RII/Fc (cynomolgus)
- T1 construct: extracellular domain; also called Cyno TGFBRII; Cyno TGFbRII
- Protocol: SPR Biacore T200, receptor-Fc captured by anti-human IgG, dAb as analyte, 1:1 model
Listed binders paired with reported pKd
# pKd = -log10(concentration in molar units)

Answered cases to consult:
>>> recorded_measurement("DOM23h-271-130 (DOM23h-271-123 + C-terminal Alanine) (VHH, human VH dAb) VHH: EVQLLESGGGLVQPGGSLRLSCAASGSTFTEYRMWWVRQAPGKGLEWVSAIEPIGHRTYYADSVKGRFTISRDNSKNTLYLQMNSLRAEDTAVYYCAKQAPGEKWARRWDLDYWGQGTLVTVSS")
9.91
>>> recorded_measurement("DOM23h-271-129 (VHH, expressed from pC10) VHH: EVQLLESGGGLVQPGGSLRLSCAASGSTFTEYRMWWVRQAPGKGLEWVSAIEPIGHRTYYADSVKGRFTISRDNSKNTLYLQMNSLRAEDTAVYYCAKQAPNQRYVARGRLDYWGQGTLVTVSS")
10.15

Suppose we examine the binder DOM23h-271-123 (VHH, expressed from pC10) VHH: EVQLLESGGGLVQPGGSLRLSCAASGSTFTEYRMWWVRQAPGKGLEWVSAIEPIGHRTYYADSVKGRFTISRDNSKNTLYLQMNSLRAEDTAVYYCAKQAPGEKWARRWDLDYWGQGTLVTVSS ; what pKd value has been reported?
9.98
